Target chain: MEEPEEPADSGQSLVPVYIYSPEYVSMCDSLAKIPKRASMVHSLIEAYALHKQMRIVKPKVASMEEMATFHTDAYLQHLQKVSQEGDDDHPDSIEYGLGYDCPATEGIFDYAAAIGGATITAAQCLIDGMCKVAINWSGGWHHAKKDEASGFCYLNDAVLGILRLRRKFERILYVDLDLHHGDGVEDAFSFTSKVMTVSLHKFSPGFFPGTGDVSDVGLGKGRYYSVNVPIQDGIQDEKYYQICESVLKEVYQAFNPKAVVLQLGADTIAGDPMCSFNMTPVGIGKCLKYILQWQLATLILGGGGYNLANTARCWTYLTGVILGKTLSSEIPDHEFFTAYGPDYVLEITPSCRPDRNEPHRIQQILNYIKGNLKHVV
IC50 overview

1. CC(=O)CCCCC[C@H](NC(=O)C1CCN(C)CC1)c1ncc(-c2ccc3ccccc3c2)[nH]1
> 1000 nM

So, COc1ccc2[nH]c(C)c(CC(=O)N[C@@H](CCCCCC(C)=O)c3ncc(-c4ccccc4)[nH]3)c2c1 ? Its IC50 was > 1000 nM
